Assay: In vivo PK, iv and oral, whole blood
Set-up: species or system C57BL/6 mice
Settings: C57BL/6, mouse, 10 mg/kg; mice, intravenous, whole blood

| compound | Vd, L/kg |
| --- | --- |
| CCN(CC)c1ccc2nc3ccc(=[N+](CC)CC)cc-3sc2c1 [AD01] | 16.2 |
| CCN(CC)c1ccc2nc3c4ccccc4/c(=N\c4ccccn4)cc-3oc2c1 [PhX6] | 14.9 |
| CCNC(=S)NN=C(c1ccccn1)c1ccccn1 [DpNEt] | 1 |

---

Assay: In vivo PK, iv and oral, whole blood
Set-up: species or system C57BL/6 mice
Conditions: C57BL/6, mouse, whole blood, mice, two-compartment behaviour; read-out: Distribution half-life
observable: half-life (min)

| compound_string | observable | reported_result |
| --- | --- | --- |
| CCN(CC)c1ccc2nc3c4ccccc4/c(=N\c4ccccn4)cc-3oc2c1 | half-life | 26 |

---

The following compounds are shown together with reported clearance values.
Experiment: In vivo PK, iv and oral, whole blood
Parameters: species or system C57BL/6 mice
Conditions: C57BL/6, mouse, 10 mg/kg; mice, intravenous, whole blood
observable: clearance

| compound_string | observable | reported_result |
| --- | --- | --- |
| CCN(CC)c1ccc2nc3c4ccccc4/c(=N\c4ccccn4)cc-3oc2c1 | clearance | 21.5 mL/min/kg |
| CCN(CC)c1ccc2nc3ccc(=[N+](CC)CC)cc-3sc2c1 | clearance | 74.4 mL/min/kg |
| CCNC(=S)NN=C(c1ccccn1)c1ccccn1 | clearance | 10.2 mL/min/kg |

---

Assay: Metabolic stability in mouse liver microsomes
Type: in vitro ADME
Item-by-item account of CLint scaled
observable: CLint scaled (mL/min/kg)

| compound | measurement_unit | reported_result |
| --- | --- | --- |
| CCN(CC)c1ccc2nc3ccc(=[N+](CC)CC)cc-3sc2c1 [AD01] | mL/min/kg | 80.6 |
| CCN(CC)c1ccc2nc3c4ccccc4/c(=N\c4ccccn4)cc-3oc2c1 [PhX6] | mL/min/kg | 88.2 |
| CCNC(=S)NN=C(c1ccccn1)c1ccccn1 [DpNEt] | mL/min/kg | 22.3 |

---

Test system: Plasmodium falciparum DD2
Test: Parasite lactate dehydrogenase (pLDH) assay over 72 h, CQ-resistant strain
Assay type: cell-based
Conditions: Plasmodium falciparum; CQ-resistant DD2, pLDH 72 h, n = 3; read-out: Plasmodium falciparum IC50 DD2
Protocol: The assay was performed in quadruplicate. The data were analyzed by nonlinear regression analysis using the GraphPad PRISM version 5.00 program to determine the IC50 of each compound.
pIC50: −log10 of the molar value.

| molecule | pIC50 |
| --- | --- |
| CCN(CC)c1ccc2nc3ccc(=[N+](CC)CC)cc-3sc2c1 [AD01] | 7.92 |
| C[C@H]1[C@H](N2CCS(=O)(=O)CC2)O[C@@H]2O[C@@]3(C)CC[C@H]4[C@H](C)CC[C@@H]1[C@@]24OO3 [AMS, artemisone] | 8.26 |
| CCN(CC)c1ccc2nc3c4ccccc4/c(=N\c4ccccn4)cc-3oc2c1 [PhX6] | 7.79 |
